B1: F-BAR and double SH3 domains protein 1, residues 467 to 528; numbered along this chain, Q86WN1 (parent)
chain: RALPCPAHVVFRYQAGREDELTITEGEWLEVIEEGDADEWVKARNQHGEVGFVPERYLNFPD

# Variants of: B1
# assay comment: abundance fitness (aPCA) (normalised: wild type 0, dead -1); higher = more abundant; growth selection in yeast, the domain comes from the species named
# condition set: Homo sapiens

{"columns": ["mutation id", "abundance fitness"],
 "data": [
  ["F11G", 0.095],
  ["A2C", 0.031],
  ["E34T", -0.048],
  ["P6Q", -0.222],
  ["E18M", -0.245],
  ["R44L", -0.342],
  ["K42T", -0.076],
  ["V9A", 0.002],
  ["I23T", -0.227],
  ["R17M", -0.091],
  ["E20K", -0.809],
  ["Y13F", -0.06],
  ["A15R", -0.178],
  ["G35V", -0.005],
  ["D19M", -0.12],
  ["E30V", -0.202],
  ["V9G", -0.602],
  ["E30S", -0.125],
  ["L3A", -0.693],
  ["V10P", -1.05],
  ["D38G", 0.023],
  ["K42M", -0.176],
  ["D36Q", 0.073],
  ["R44E", -0.268],
  ["P4L", -0.567],
  ["F11I", 0.12],
  ["V9D", -0.764],
  ["A43V", -0.056],
  ["G35H", -0.409],
  ["R17G", -0.09],
  ["F11Q", -0.103],
  ["P6D", -0.432],
  ["H8P", -0.905],
  ["W40Y", 0.079],
  ["C5L", -0.538],
  ["I23C", -0.228],
  ["I23A", -0.705],
  ["L29W", -1.01],
  ["L29S", -0.491],
  ["I32F", 0.018],
  ["T22N", 0.09],
  ["E25R", -0.328],
  ["G35T", 0.063],
  ["D38I", -0.066],
  ["R1N", 0.002],
  ["V41Y", -0.154]
]}
